For each entry below, report its percent inhibition of viability value.
system: IMC-1 (IL-2 20 ng/mL); experiment: percent inhibition of viability; higher = more inhibition; conditions: 72 h; 1000 nM;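 also: normalised to DMSO-only wells as negative and benzethonium chloride as positive control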
Numbers only, in %.

Recorded percent inhibition of viability, per entry:
[
  {
    "Compound": "O=C(/C=C/c1cccc(S(=O)(=O)Nc2ccccc2)c1)NO [Belinostat] (max concentration tested 10000 nM)",
    "Target desc": "IMC-1 (IL-2 20 ng/mL)",
    "Quantity unit": "%",
    "Measured": 99.6
  },
  {
    "Compound": "C=CCc1cccc(/C=N/NC(=O)CN2CCN(Cc3ccccc3)CC2)c1O [PAC-1] (max concentration tested 10000 nM)",
    "Target desc": "IMC-1 (IL-2 20 ng/mL)",
    "Quantity unit": "%",
    "Measured": 1.88
  },
  {
    "Compound": "CNC(=O)c1cc(COc2nnc(Nc3ccc(Cl)cc3)c3ccoc23)ccn1 [Telatinib] (max concentration tested 10000 nM)",
    "Target desc": "IMC-1 (IL-2 20 ng/mL)",
    "Quantity unit": "%",
    "Measured": 6.73
  },
  {
    "Compound": "COc1cc(N2CCC(N3CCN(C)CC3)CC2)ccc1Nc1ncnc(Nc2ccccc2S(=O)(=O)C(C)C)n1 [ASP3026] (max concentration tested 10000 nM)",
    "Target desc": "IMC-1 (IL-2 20 ng/mL)",
    "Quantity unit": "%",
    "Measured": -3.28
  },
  {
    "Compound": "COCC[n+]1c2c(n(Cc3cnccn3)c1C)C(=O)c1ccccc1C2=O [YM155] (max concentration tested 10000 nM)",
    "Target desc": "IMC-1 (IL-2 20 ng/mL)",
    "Quantity unit": "%",
    "Measured": 101
  },
  {
    "Compound": "Nc1ccccc1NC(=O)c1ccc(CNC(=O)OCc2cccnc2)cc1 [Entinostat] (max concentration tested 10000 nM)",
    "Target desc": "IMC-1 (IL-2 20 ng/mL)",
    "Quantity unit": "%",
    "Measured": 10.1
  }
]

Next item in the queue.
Data request, read-out percent inhibition of viability, for CCCC(CCC)C(=O)O [Valproic acid] (max concentration tested 1000000 nM)
-1.48
